- assay_name: EPSA
- Type: physicochemical
- condition_set: EPSA

item_smiles | EPSA [A^2]
CC(=O)N[C@@H](CCCNC(=N)N)C(=O)N[C@@H](CCCNC(=N)N)C(=O)NCCCCCC(=O)N[C@@H](CC(C)C)C(=O)N[C@H](C(=O)N[C@@H](Cc1ccccc1)C(=O)N[C@]1(C)CCCCCCC=CCCC[C@@](C)(C(=O)N[C@@H](CO)C(=O)N[C@@H](C)C(=O)N[C@@H](C)C(N)=O)NC(=O)[C@H](CC2CCC2)NC(=O)[C@H](CCC(N)=O)NC(=O)[C@H](C)NC(=O)[C@H](Cc2c[nH]c3ccccc23)NC(=O)[C@H](Cc2ccc(O)cc2)NC(=O)[C@H](CCC(=O)O)NC1=O)[C@@H](C)O | 207
CC(=O)N[C@@H](CCCCN=[N+]=[N-])C(=O)N[C@@H](CCCCN)C(=O)N[C@@H](CCCCN)C(=O)N[C@@H](CC(C)C)C(=O)N[C@H](C(=O)N[C@@H](Cc1ccccc1)C(=O)N[C@]1(C)CCCCCCC=CCCC[C@@](C)(C(=O)N[C@@H](CO)C(=O)N[C@@H](C)C(=O)N[C@@H](C)C(N)=O)NC(=O)[C@H](CC2CCC2)NC(=O)[C@H](CCC(N)=O)NC(=O)[C@H](C)NC(=O)[C@H](Cc2c[nH]c3ccccc23)NC(=O)[C@H](Cc2ccc(O)cc2)NC(=O)[C@H](CCC(=O)O)NC1=O)[C@@H](C)O | 213
CC(=O)N[C@@H](CCCCN=[N+]=[N-])C(=O)NCCC(=O)N[C@@H](CC(C)C)C(=O)N[C@H](C(=O)N[C@@H](Cc1ccccc1)C(=O)N[C@]1(C)CCCCCCC=CCCC[C@@](C)(C(=O)N[C@@H](CO)C(=O)N[C@@H](C)C(=O)N[C@@H](C)C(N)=O)NC(=O)[C@H](CCC(=O)O)NC(=O)[C@H](CCC(N)=O)NC(=O)[C@H](C)NC(=O)[C@H](Cc2c[nH]c3ccccc23)NC(=O)[C@H](Cc2ccc(O)cc2)NC(=O)[C@H](CCC(=O)O)NC1=O)[C@@H](C)O | 255

* * *

- assay_name: Solubility assay (kinetic solubility, PBS pH 7)
- Assay type: physicochemical
- condition_set: pH 7, aqueous buffer, kinetic from dmso stock
- Description: The standard reference solutions were prepared by diluting the 10 mM stock in 10:80:10 solution of acetonitrile:methanol:DMSO to 100 µM. The solubility value is calculated by the following equation: Solubility [µM] = (Peak area of sample/ Peak area of standard) (Standard concentration)

item_smiles | unit_spec | solubility kinetic
CC(C)[C@@H](CS(=O)(=O)C(C)C)N1C(=O)[C@@](C)(CC(=O)O)C[C@H](c2cccc(Cl)c2)[C@H]1c1ccc(Cl)cc1 | µM | 138

* * *

Reported CD % Helicity values for the following compounds.
- assay_name: Circular dichroism (CD) helicity
- Type: physicochemical
- Procedure: A total of 5 µL of the 10 mM stock peptide was mixed with 45 µL of 100% methanol, and dried for 2 h in the SpeedVac concentrator (Thermo Scientific). The dried peptide was reconstituted in a buffer (1 mM Hepes pH 7.4 and 5% methanol) to a concentration of 1 mM. […] The peptide concentration was determined by the absorbance of the peptide at […]. The CD spectrum was recorded from 300 to 190 nm using the Chirascan-plus qCD machine (Applied Photophysics, Surrey, UK), at 25 °C. […]
Positions of bridges follow the written chain, without caps; N, C: chain ends. Non-standard residues stand in square brackets, D forms with d. Residues, ends and D or L forms follow the SMILES beside them. dPhe(4-CF3) = N[C@H](Cc1ccc(C(F)(F)F)cc1)C(=O)O; dTrp(6-F) = N[C@H](Cc1c[nH]c2cc(F)ccc12)C(=O)O; R5 = C=CCCC[C@@](C)(N)C(=O)O; Aib = CC(C)(N)C(=O)O
parameter: CD % Helicity (%)

compound | parameter | observed_value
CC(=O)N[C@@H](C(=O)N[C@H](C)C(=O)N[C@H](Cc1c[nH]c2cc(F)ccc12)C(=O)N[C@H](Cc1ccc(O)cc1)C(=O)N[C@H](C)C(=O)N[C@]1(C)CCCC=CCCC[C@](C)(C(=O)N[C@H](CC(C)C)C(=O)N[C@H](CO)C(N)=O)NC(=O)[C@@H](CCC(N)=O)NC(=O)[C@@H](CCC(=O)O)NC(=O)[C@@H](Cc2ccc(C(F)(F)F)cc2)NC1=O)[C@H](C)O [MP-797] (Ac-[dT][dA][dTrp(6-F)][dY][dA][R5][dPhe(4-CF3)][dE][dQ][R5][dL][dS]-NH2; staple 6-10) | CD % Helicity | 26.6
CC(=O)N[C@@H](CC(C)C)C(=O)N[C@H](C(=O)N[C@@H](Cc1ccccc1)C(=O)NC(C)(C)C(=O)N[C@@H](CCC(=O)O)C(=O)N[C@@H](Cc1ccc(O)cc1)C(=O)N[C@@H](Cc1c[nH]c2ccccc12)C(=O)N[C@@H](C)C(=O)N[C@@H](CCC(N)=O)C(=O)N[C@@H](CC(C)C)C(=O)NC(C)(C)C(=O)N[C@@H](CO)C(N)=O)[C@@H](C)O [MP-790] (Ac-LTF[Aib]EYWAQL[Aib]S-NH2) | CD % Helicity | 19

Source of measurements: paper PMC10786919
